SYSTEM: BRD4-BD1 (Homo sapiens, UniProt O60885)
Construct: purchased ReactionBiologyCorp; (RBC)
TEST_METHOD_NOTES: BRD4 AlphaScreen determination (BD1)
Format: binding
SETTINGS: AlphaScreen, protein binding inhibition; read-out: BRD4-BD1 IC50
Procedure: (1) 1× Assay buffer was prepared according to the kit requirements of ReactionBiologyCorp. (RBC). […] The solution was gradient diluted to the corresponding 1000-fold final concentration in a 384-well Source plate, and then 20 nL of the solution was transferred to the 384-well reaction plate with Echo550 to be measured. […] (8) Reading with EnVision. […]
pIC50: −log10 of the molar value.
MEASUREMENT_NAME: pIC50

{"GIVEN_SMILES": "Cc1cc(F)cc(C)c1Oc1ccc(C(C)(C)O)cc1-c1cn(C)c(=O)c2cc(C(=O)NCC3CC3)[nH]c12", "SYSTEM": "BRD4-BD1 (Homo sapiens, UniProt O60885)", "MEASUREMENT_NAME": "pIC50", "RESULT": 7.30}
{"GIVEN_SMILES": "Cc1cc(F)cc(C)c1Oc1ccc(C(C)(C)O)cc1-c1cn(C)c(=O)c2cc(C(=O)NC3CC(F)(F)C3)[nH]c12", "SYSTEM": "BRD4-BD1 (Homo sapiens, UniProt O60885)", "MEASUREMENT_NAME": "pIC50", "RESULT": 6.93}
{"GIVEN_SMILES": "Cc1cc(F)cc(C)c1Oc1ccc(C(C)(C)O)cc1-c1cn(C)c(=O)c2cc(C(=O)NC(C)C)[nH]c12", "SYSTEM": "BRD4-BD1 (Homo sapiens, UniProt O60885)", "MEASUREMENT_NAME": "pIC50", "RESULT": 7.10}
{"GIVEN_SMILES": "COCCNC(=O)c1cc2c(=O)n(C)cc(-c3cc(C(C)(C)O)ccc3Oc3c(C)cc(F)cc3C)c2[nH]1", "SYSTEM": "BRD4-BD1 (Homo sapiens, UniProt O60885)", "MEASUREMENT_NAME": "pIC50", "RESULT": 7.43}
{"GIVEN_SMILES": "Cc1cc(F)cc(C)c1Oc1ccc(C(C)(C)O)cc1-c1cn(C)c(=O)c2cc(C(=O)N3CC(F)(F)C3)[nH]c12", "SYSTEM": "BRD4-BD1 (Homo sapiens, UniProt O60885)", "MEASUREMENT_NAME": "pIC50", "RESULT": 6.53}
{"GIVEN_SMILES": "Cc1cc(F)cc(C)c1Oc1ccc(C(C)(C)O)cc1-c1cn(C)c(=O)c2cc(C(=O)NCC#N)[nH]c12", "SYSTEM": "BRD4-BD1 (Homo sapiens, UniProt O60885)", "MEASUREMENT_NAME": "pIC50", "RESULT": 7.09}
{"GIVEN_SMILES": "Cc1cc(F)cc(C)c1Oc1ccc(C(C)(C)O)cc1-c1cn(C)c(=O)c2cc(C(=O)N3CCC3)[nH]c12", "SYSTEM": "BRD4-BD1 (Homo sapiens, UniProt O60885)", "MEASUREMENT_NAME": "pIC50", "RESULT": 6.63}
{"GIVEN_SMILES": "Cc1cc(F)cc(C)c1Oc1ccc(C(C)(C)O)cc1-c1cn(C)c(=O)c2cc(C(=O)NCCS(C)(=O)=O)[nH]c12", "SYSTEM": "BRD4-BD1 (Homo sapiens, UniProt O60885)", "MEASUREMENT_NAME": "pIC50", "RESULT": 7.24}
{"GIVEN_SMILES": "CCNC(=O)c1cc2c(=O)n(C)cc(-c3cc(S(C)(=O)=O)cc4c3OC(C)(C)C(=O)N4C)c2[nH]1", "SYSTEM": "BRD4-BD1 (Homo sapiens, UniProt O60885)", "MEASUREMENT_NAME": "pIC50", "RESULT": 7.44}
{"GIVEN_SMILES": "Cc1cc(F)cc(C)c1Oc1ccc(C(C)(C)O)cc1-c1cn(C)c(=O)c2cc(C(=O)NC(CF)CF)[nH]c12", "SYSTEM": "BRD4-BD1 (Homo sapiens, UniProt O60885)", "MEASUREMENT_NAME": "pIC50", "RESULT": 7.01}
